Experiment: Pharmacokinetics after IV and oral dose, rats
Type: in vivo, Sprague Dawley rats
Measurement setup: Sprague Dawley, plasma; rat, female, single oral dose 5 mg base/kg
Assay endpoint: AUC(0-t) (ng·h/mL)
Expressed in ng·h/mL, but write only the number.

Prompt: Entry COc1ccc(-c2c(-c3ccc(C#N)c(F)c3)nc(N3CCC(N)CC3)n(C)c2=O)cc1F : reported AUC(0-t) = ?
Response: 222

* * *

Experiment: Pharmacokinetics after IV and oral dose, dogs
Format: in vivo, Beagle dogs
Measurement setup: Beagle (dogs), dog, plasma; IV, non-rodents (dogs, monkeys); read-out: half-life
Assay endpoint: half-life

Prompt: Entry COc1ccc(-c2c(-c3ccc(C#N)c(F)c3)nc(N3CCC(N)CC3)n(C)c2=O)cc1F : reported half-life = ?
Response: 12 to 20 h

Where these numbers come from: patent US10328077B2
